Here, each record is paired with measured self-cleavage data.
B1: HDV Ribozyme (parent)
chain: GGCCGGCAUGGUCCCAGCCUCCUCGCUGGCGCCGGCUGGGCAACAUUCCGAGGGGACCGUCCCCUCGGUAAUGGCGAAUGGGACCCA

variants of: B1; experiment: self-cleavage, relative activity (ratio to wild type); higher = more cleavage; co-transcriptional

| VARIANT DESIGNATION | self-cleavage |
| --- | --- |
| C15G G68A | 0.525 |
| C15G C44A | 0.237 |
| C19G G29A | 0.0378 |
| G10A U12G | 0 |
| C15U C48U | 0.852 |
| U27C U60G | 0.875 |
| G38C A77G | 0.0536 |
| G1C G2A | 0.138 |
| G1U G38A | 0.422 |
| C18A C66A | 0.208 |
| G52C G67A | 0.62 |
| G2A G53U | 0.145 |
| C26G G50C | 0.997 |
| U23C A51C | 1.08 |
| C19A A51U | 0.175 |
| A8U G38U | 0.326 |
| C66U C75A | 0.176 |
| G25C G67U | 0 |
| C36A G38U | 0.189 |
| C64U A70C | 0.956 |
| G50U U60A | 0.87 |
| A56U C64G | 0.882 |
| C7U A43G | 0.19 |
| G6U C84G | 0.0923 |
| C22U A51U | 0.708 |
| A42G A56G | 0.516 |
| U20A G68U | 0 |
| U37G C61U | 0.138 |
| C21G G68A | 0.0707 |
| G11U G17C | 0.203 |
| G39A A70U | 0.496 |
| A16C C62A | 0.917 |
| U12A G31U | 0.0811 |
| C19G C86U | 0.26 |
| C49A C58G | 0.988 |
| G10U C64G | 0.669 |
| G2U G40A | 0.0369 |
| G52C G74A | 0.486 |
| G17U A45G | 0.525 |
| A56C C64A | 0.911 |
| A51U C86A | 0.848 |
| U27G A45U | 0.831 |
| A42C C62G | 0.0898 |
| C14G A77C | 0 |
| U20C G81A | 0 |
| C36A A77C | 0.259 |
